Concentration by entry:
# System: Streptococcus mutans
# assay-method-text: Minimum plaque inhibitory concentration using a standard test organism, Streptococcus mutans OMZ-61
# Type: functional, organism-based
Your answer should be a plain number; it is taken to be in %.

Example compounds with recorded Concentration:
Bench note: what Concentration did `CCCCCCCN=c1ccn(CCCCCCCCCCCCn2ccc(=NCCCCCCC)cc2)cc1.Cl.Cl` show?
0.003

Bench note: what Concentration did `CCCCCCN=c1ccn(CCCCCCCCCCCCCCn2ccc(=NCCCCCC)cc2)cc1.Cl.Cl` show?
0.004

Bench note: what Concentration did `Br.Br.CCCCCCCCCCN=c1ccn(CCCCCCCCn2ccc(=NCCCCCCCCCC)cc2)cc1` show?
0.01

Bench note: what Concentration did `Br.Br.CCCCCCCCCCCCN=c1ccn(CCCCCCn2ccc(=NCCCCCCCCCCCC)cc2)cc1` show?
0.1

Continuing:
Bench note: what Concentration did `Br.Br.CCCCCCCCCCN=c1ccn(CCCCCCCCCn2ccc(=NCCCCCCCCCC)cc2)cc1` show?
0.01

Bench note: what Concentration did `Br.Br.CCCCCCCCCCCCN=c1ccn(CCCCCCCCn2ccc(=NCCCCCCCCCCCC)cc2)cc1` show?
0.1

Bench note: what Concentration did Br.Br.CCCCC(CC)CN=c1ccn(CCCCCCCCCn2ccc(=NCC(CC)CCCC)cc2)cc1 (centres undefined) show?
0.004

###

# assay-method-text: Compound is evaluated for stain index
# Format: functional
Stain index by entry:
# print the numeric value only

Bench note: what Stain index did `Br.Br.CCCCCCCCCN=c1ccn(CCCCCCCCCn2ccc(=NCCCCCCCCC)cc2)cc1` show?
1

Bench note: what Stain index did `CCCCCCCN=c1ccn(CCCCCCCCCCCCn2ccc(=NCCCCCCC)cc2)cc1.Cl.Cl` show?
10

Bench note: what Stain index did `CCCCCCN=c1ccn(CCCCCCCCCCCCCCn2ccc(=NCCCCCC)cc2)cc1.Cl.Cl` show?
1

Bench note: what Stain index did `CCCCCCCN=c1ccn(CCCCCCCCCCn2ccc(=NCCCCCCC)cc2)cc1.Cl.Cl` show?
10

Now for a further compound.
Bench note: what Stain index did `CCCCCCCCN=c1ccn(CCCCCCCCn2ccc(=NCCCCCCCC)cc2)cc1.Cl.Cl` show?
10

###

Concentration by entry:
# Test system: Streptococcus mutans
# assay-method-text: Minimum plaque inhibitory concentration using a standard test organism, Streptococcus mutans OMZ-61
# Type: functional, organism-based
Your answer should be a plain number; it is taken to be in %.

Example compounds with recorded Concentration:
Bench note: what Concentration did `Br.Br.CCCCCCCCCN=c1ccn(CCCCCCCCCn2ccc(=NCCCCCCCCC)cc2)cc1` show?
0.004

Bench note: what Concentration did `CCCCCCCCCN=c1ccn(CCCCCCn2ccc(=NCCCCCCCCC)cc2)cc1.Cl.Cl` show?
0.01

Bench note: what Concentration did `CCCCCCCN=c1ccn(CCCCCCCCn2ccc(=NCCCCCCC)cc2)cc1.Cl.Cl` show?
0.1

Bench note: what Concentration did `Br.Br.CCCCCCCCCCCCN=c1ccn(CCCCCCCCCCCCn2ccc(=NCCCCCCCCCCCC)cc2)cc1` show?
0.1

Bench note: what Concentration did `Br.Br.CCCCCCCCCCN=c1ccn(CCCCCCn2ccc(=NCCCCCCCCCC)cc2)cc1` show?
0.01

Continuing:
Bench note: what Concentration did Br.Br.CCCCC(CC)CN=c1ccn(CCCCCCCCCCCCn2ccc(=NCC(CC)CCCC)cc2)cc1 (stereo not given) show?
0.004

Bench note: what Concentration did `Br.Br.CCCCCCCCCN=c1ccn(CCCCCCCCCCCCn2ccc(=NCCCCCCCCC)cc2)cc1` show?
0.01

Bench note: what Concentration did `Br.Br.CCCCCCCCN=c1ccn(CCCCCCCn2ccc(=NCCCCCCCC)cc2)cc1` show?
0.005

Bench note: what Concentration did CCCCCCCCN=c1ccn(CCCCCCCCCCn2ccc(=NCCCCCCCC)cc2)cc1.Cl.Cl [OCTENIDINE HYDROCHLORIDE] show?
0.005

Bench note: what Concentration did `CCCCCCCCN=c1ccn(CCCCCCCCCn2ccc(=NCCCCCCCC)cc2)cc1.Cl.Cl` show?
0.003

Bench note: what Concentration did `Br.Br.CCCCCCCCN=c1ccn(CCCCCCCCCCCCn2ccc(=NCCCCCCCC)cc2)cc1` show?
0.005

###

# System: Escherichia coli
# assay-method-text: Antimicrobial minimum inhibitory concentration against Escherichia coli 100/B22
# Assay type: functional
outcome-measure: MIC (µg/mL)
Your answer should be a plain number; it is taken to be in µg/mL.

Example molecules with recorded MIC:
Bench note: what MIC did `Br.Br.CCCCCCCCCN=c1ccn(CCCCCCCn2ccc(=NCCCCCCCCC)cc2)cc1` show?
2

Bench note: what MIC did `CCCCCCN=c1ccn(CCCCCCCCCCCCn2ccc(=NCCCCCC)cc2)cc1.Cl.Cl` show?
0.5

Bench note: what MIC did `Br.Br.CCCCCCCCCN=c1ccn(CCCCCCCCn2ccc(=NCCCCCCCCC)cc2)cc1` show?
2

Bench note: what MIC did `Br.Br.CCCCCCCCCN=c1ccn(CCCCCCCCCCn2ccc(=NCCCCCCCCC)cc2)cc1` show?
3.9

Continuing:
Bench note: what MIC did `Br.Br.N=c1ccn(CCCCCCCCn2ccc(=N)cc2)cc1` show?
250

Bench note: what MIC did `CCCCCCCCN=c1ccn(CCCCCCn2ccc(=NCCCCCCCC)cc2)cc1.Cl.Cl` show?
0.5

Bench note: what MIC did `Br.Br.CCCCCCCCCCN=c1ccn(CCCCCCn2ccc(=NCCCCCCCCCC)cc2)cc1` show?
7.8

Bench note: what MIC did CCCCC(CC)CNC(=N)NC(=N)NCCCCCCNC(=N)NC(=N)NCC(CC)CCCC.Cl.Cl (stereo unspecified) [ALEXIDINE DIHYDROCHLORIDE] show?
1

Bench note: what MIC did `Br.Br.Fc1ccc(N=c2ccn(CCCCCCn3ccc(=Nc4ccc(F)cc4)cc3)cc2)cc1` show?
15.6

Bench note: what MIC did `Br.Br.CCCCCCN=c1ccn(CCCCCCCCCn2ccc(=NCCCCCC)cc2)cc1` show?
2

Bench note: what MIC did `Br.Br.c1cn(CCCCCCCCn2ccc(=NC3CCCCC3)cc2)ccc1=NC1CCCCC1` show?
62.5

###

# System: Escherichia coli
# assay-method-text: Antimicrobial minimum inhibitory concentration against Escherichia coli 100/B22
# Type: functional
# label = 1 (yes) if MIC < 20 µg/mL else 0 (no)

Here's what some known entries look like.
is_below(MIC, 20 µg/mL) for `Br.Br.c1cn(CCCCCCCn2ccc(=NC3CCCCC3)cc2)ccc1=NC1CCCCC1` ?
0 (no)

is_below(MIC, 20 µg/mL) for Br.Br.CCCCC(CC)CN=c1ccn(CCCCCCCn2ccc(=NCC(CC)CCCC)cc2)cc1 (stereo unspecified) ?
1 (yes)

is_below(MIC, 20 µg/mL) for `CS(=O)(=O)O.CS(=O)(=O)O.Clc1ccc(N=c2ccn(CCCCCCCCn3ccc(=Nc4ccc(Cl)cc4)cc3)cc2)cc1` ?
1 (yes)

is_below(MIC, 20 µg/mL) for `Br.Br.CCCCCCCCCCCCN=c1ccn(CCCCCCCCCCn2ccc(=NCCCCCCCCCCCC)cc2)cc1` ?
0 (no)

is_below(MIC, 20 µg/mL) for `Br.Br.CCCCCCCCCCN=c1ccn(CCCCCCCCCCCCn2ccc(=NCCCCCCCCCC)cc2)cc1` ?
1 (yes)

Continuing:
is_below(MIC, 20 µg/mL) for Br.Br.CCCCC(CC)CN=c1ccn(CCCCCCCCCn2ccc(=NCC(CC)CCCC)cc2)cc1 (stereo unspecified) ?
1 (yes)

###

# System: Streptococcus mutans
# assay-method-text: Minimum plaque inhibitory concentration using a standard test organism, Streptococcus mutans OMZ-61
# Assay type: functional, organism-based
Concentration by entry:

Example molecules with recorded Concentration:
Bench note: what Concentration did `CCCCCCCN=c1ccn(CCCCCCn2ccc(=NCCCCCCC)cc2)cc1.Cl.Cl` show?
> 1%

Bench note: what Concentration did `Br.Br.Fc1ccc(N=c2ccn(CCCCCCCCn3ccc(=Nc4ccc(F)cc4)cc3)cc2)cc1` show?
> 1%

Bench note: what Concentration did `CS(=O)(=O)O.CS(=O)(=O)O.Clc1ccc(N=c2ccn(CCCCn3ccc(=Nc4ccc(Cl)cc4)cc3)cc2)cc1` show?
> 1%

Bench note: what Concentration did `Br.Br.Clc1ccc(N=c2ccn(CCCCCn3ccc(=Nc4ccc(Cl)cc4)cc3)cc2)cc1` show?
> 1%

Bench note: what Concentration did `Br.Br.CCCCCCCN=c1ccn(CCCCn2ccc(=NCCCCCCC)cc2)cc1` show?
> 1%

Continuing:
Bench note: what Concentration did Br.Br.CCCCC(CC)CN=c1ccn(CCCCCCn2ccc(=NCC(CC)CCCC)cc2)cc1 (centres undefined) show?
> 1%

Bench note: what Concentration did `Br.Br.c1cn(CCCCCn2ccc(=NC3CCCCC3)cc2)ccc1=NC1CCCCC1` show?
> 1%

Bench note: what Concentration did `Br.Br.c1cn(CCCCCCn2ccc(=NC3CCCCC3)cc2)ccc1=NC1CCCCC1` show?
> 1%

Bench note: what Concentration did `CCCCCCCN=c1ccn(CCCCCCCCCCn2ccc(=NCCCCCCC)cc2)cc1.Cl.Cl` show?
0.004%

Bench note: what Concentration did `CCCCCCN=c1ccn(CCCCCCCCCCCCn2ccc(=NCCCCCC)cc2)cc1.Cl.Cl` show?
0.01%
